tested on: Tov-21-G; assay: Primary qHTS to identify gynecologic anti-cancer compounds using libraries of approved drugs and bioactive compounds (AID 1345084); settings: Gynecologic cancer cell panel viability, ATPlite luminescence, 48 h; series mostly up to 57.5 µM; note: % is set by controls: 0 for no effect and ±100 for the full control effect; nearly all actives have a fitted effect of over 55% in size
Results filed as inconclusive are left out. The source made the active and inactive calls. Calls come from the whole dose curve; as a rule, active = well fitted cell-killing curve with a large enough effect; inconclusive = small, poorly fitted or top-dose-only effect, or effect the other way; inactive = flat fitted curve, though single readings scatter.
experimentalEndpoint: activity change, negative = cytotoxicity

compound: COc1cc2c(cc1OC)N1C(=O)C[C@@]34C=CC[N@+]5([O-])CC[C@H]2[C@H](CC3)[C@@]145
observedValue: inactive

compound: CC1(C(=O)O)CC[C@]2(C(=O)OC3OC(CO)C(O)C(O)C3O)CC[C@]3(C)C(=CCC4[C@@]5(C)CC[C@H](OC6OCC(O)C(O)C6OC6OC(CO)C(O)C(O)C6O)C(C)(C)C5CC[C@]43C)C2C1 (stereo not given in full)
observedValue: 15.1% [at 11.6 µM] (inactive)

compound: COC(=O)C1C(O)CCC2CN3CCc4c([nH]c5ccccc45)C3CC21 (stereo not given)
observedValue: inactive

compound: CC1OC(OC2CCC3(C)C(CCC4(C)C3C=CC35OCC6(CCC(C)(C)CC63)CCC45C)C2(C)CO)C(OC2OC(CO)C(O)C(O)C2O)C(O)C1OC1OC(CO)C(O)C(O)C1O (stereo not given)
observedValue: 3.71% [at 11.6 µM] (inactive)

compound: COc1c(C)c(OCC=C(C)C)cc2c1CNC2=O
observedValue: inactive

---

test system: PA-1; assay: Primary qHTS to identify gynecologic anti-cancer compounds using libraries of approved drugs and bioactive compounds (AID 1345084); details: Gynecologic cancer cell panel viability, ATPlite luminescence, 48 h; series mostly up to 57.5 µM; note: % is set by controls: 0 for no effect and ±100 for the full control effect; nearly all actives have a fitted effect of over 55% in size
Records with an inconclusive call do not appear. Calls of active or inactive are those of the source. Calls follow the shape of the dose curve; as a rule, active = well fitted cell-killing curve with a large enough effect; inconclusive = small, poorly fitted or top-dose-only effect, or effect the other way; inactive = flat fitted curve, though single readings scatter.
experimentalEndpoint: activity change, negative = cytotoxicity

molecule: CC1(C(=O)O)CCCC2(C)C3CCC4CC3(CCC12)CC4C(=O)O (stereo not drawn)
testSystem: PA-1
observedValue: inactive
//
molecule: COc1cc(O)c2c(c1)C1(OC2=O)C(C)=CC(=O)C1O (stereo not drawn)
testSystem: PA-1
observedValue: inactive
//
molecule: O=[N+]([O-])c1cc(Cl)ccc1S(=O)(=O)N1CCN(Cc2ccccc2)CC1
testSystem: PA-1
observedValue: inactive
//
molecule: COc1ccc(C(=O)NCc2cc(C(C)C)no2)cc1OC1CCN(C)CC1
testSystem: PA-1
observedValue: inactive
//
molecule: CCCc1[nH]nc2c1C(c1cc(Cl)cc(Cl)c1O)C(C#N)=C(N)O2 (stereo not drawn)
testSystem: PA-1
observedValue: inactive
//
molecule: COc1cccc(C)c1C(=O)O[C@@H]1C[C@H](O[C@H]2[C@H](O)C[C@H](O[C@@H]3CCC[C@H]4[C@H]3C=C[C@@H]3CCCC/C=C/[C@H]5C=C(C(=O)O)[C@@H](C)C[C@@]56OC(=O)C(=C6O)OC(=O)[C@@]34C)O[C@@H]2C)O[C@H](C)[C@H]1O
testSystem: PA-1
observedValue: 9.36% [at 11.6 µM] (inactive)
//
molecule: C=C(C(=O)O)C1CC(OC(=O)CC(C)CC)C2(C)CCCC(=C)C2C1 (stereo not drawn)
testSystem: PA-1
observedValue: inactive
//
molecule: CC1(CO)CCCC2(C)C3COC(=O)C3=CC(O)C12 (stereo not drawn)
testSystem: PA-1
observedValue: inactive
//
molecule: CC1CC(=O)[C@]2(O)C(C(=O)OCCc3ccc(O)cc3)=CO[C@@H](O[C@@H]3O[C@H](CO)[C@@H](O)[C@H](O)[C@H]3O)[C@H]12 (stereo partly drawn)
testSystem: PA-1
observedValue: inactive
//
molecule: COC1CC(O[C@H]2CC[C@@]3(C)C(=CC[C@]4(O)C3[C@H](O)[C@@H](O)[C@]3(C)[C@@H]([C@H](C)O)CC[C@@]34O)C2)OC(C)C1OC1CC(OC)C(OC2CC(OC)C(OC3OC(C)C(OC4OC(CO)C(O)C(O)C4O)C(OC)C3O)C(C)O2)C(C)O1 (stereo partly drawn)
testSystem: PA-1
observedValue: -4.49% [at 11.6 µM] (inactive)
//
molecule: C/C=C(\C)C(=O)OC[C@H]1O[C@@H](O[C@H]2[C@@H](O[C@H]3O[C@H](COC(=O)/C(C)=C/C)[C@@H](O)[C@H](O)[C@H]3O[C@@H]3O[C@H](CO)[C@@H](O)[C@H](OC(=O)/C(C)=C/C)[C@H]3O)O[C@H](COC(=O)/C(C)=C/C)[C@@H](O)[C@@H]2O)[C@H](O)[C@@H](O)[C@@H]1O
testSystem: PA-1
observedValue: -18.4% [at 11.6 µM] (inactive)
//
molecule: C[C@@H]1O[C@@H](O[C@H]2[C@@H]3C=CO[C@@H](O[C@@H]4O[C@H](CO)[C@@H](O)[C@H](O)[C@H]4O)[C@@H]3[C@@]3(CO)O[C@@H]23)[C@H](O)[C@H](OC(=O)/C=C/c2ccc(O)c(O)c2)[C@H]1O
testSystem: PA-1
observedValue: inactive
//
molecule: Fc1ccc(-c2c3cccc(C(F)(F)F)c3nn2Cc2ccc(F)cc2Cl)cc1
testSystem: PA-1
observedValue: inactive

---

tested on: CASKI; assay: Primary qHTS to identify gynecologic anti-cancer compounds using libraries of approved drugs and bioactive compounds (AID 1345084); conditions: Gynecologic cancer cell panel viability, ATPlite luminescence, 48 h; series mostly up to 57.5 µM; note: % is set by controls: 0 for no effect and ±100 for the full control effect; nearly all actives have a fitted effect of over 55% in size
Records with an inconclusive call do not appear. Calls of active or inactive are those of the source. Calls come from the whole dose curve; as a rule, active = well fitted cell-killing curve with a large enough effect; inconclusive = small, poorly fitted or top-dose-only effect, or effect the other way; inactive = flat fitted curve, though single readings scatter.

molecule: COc1cc(Nc2nc3c(s2)CCCC3c2ccccc2)ccc1-n1cnc(C)c1 (stereo unspecified)
activity change, negative = cytotoxicity: 15.8% [at 11.6 µM] (inactive)
--
molecule: CC1(C)CC[C@]2(C(=O)OC3OC(CO)C(O)C(O)C3O)CC[C@]3(C)C(=CCC4[C@@]5(C)C[C@@H](O)[C@H](OC6OC(C(=O)O)C(O)C(O)C6O)C(C)(C)C5CC[C@]43C)[C@@H]2C1 (stereo partly specified)
activity change, negative = cytotoxicity: 3.29% [at 11.6 µM] (inactive)
--
molecule: CC(C)(C)NS(=O)(=O)c1ccc(-c2ccc3[nH]nc(N)c3c2)cc1
activity change, negative = cytotoxicity: inactive
--
molecule: C=C1CC[C@@]2(OC1)O[C@H]1CC3[C@@H]4CC=C5C[C@H](O[C@H]6OC[C@@H](O)C(O)[C@@H]6O[C@@H]6O[C@@H](C)[C@H](O)[C@@H](O[C@@H]7O[C@H](CO)[C@@H](O)[C@H](O)[C@H]7O)[C@H]6O)C[C@@H](O)[C@]5(C)C4CC[C@]3(C)[C@H]1[C@@H]2C (stereo partly specified)
activity change, negative = cytotoxicity: -7.31% [at 11.6 µM] (inactive)
--
molecule: OC[C@H]1O[C@@H](OCCc2ccccc2)[C@H](O)[C@@H](O)[C@@H]1O
activity change, negative = cytotoxicity: inactive
--
molecule: NC(=O)[C@@H]1CC[C@H](c2ccc(OCc3ccccc3F)cc2)N1
activity change, negative = cytotoxicity: inactive

---

System: C33A
Assay: Primary qHTS to identify gynecologic anti-cancer compounds using libraries of approved drugs and bioactive compounds (AID 1345084); note: % is set by controls: 0 for no effect and ±100 for the full control effect; nearly all actives have a fitted effect of over 55% in size
Details: Gynecologic cancer cell panel viability, ATPlite luminescence, 48 h; series mostly up to 57.5 µM
Text: National Center for Advancing Translational Sciences [NCATS] Assay Overview: Chemotherapeutic drug responses vary from cancer to cancer and from patient to patient. […] ATPlite is a luminescence based assay reliant on the conversion of a luciferase substrate to light in the presence of ATP. As a cytotoxic compound will suppress growth and decrease the number of cells, the concentration of ATP will decrease, and less light signal will be detected in the well. […]
Inconclusive results are not listed. Calls of active or inactive are those of the source. Calls come from the whole dose curve; as a rule, active = well fitted cell-killing curve with a large enough effect; inconclusive = small, poorly fitted or top-dose-only effect, or effect the other way; inactive = flat fitted curve, though single readings scatter. Where a SMILES comes first, the peptide text is derived from it.
experimentalEndpoint: activity change, negative = cytotoxicity

molecule: CC(C/C=C/C(C)(C)O)C1CCC(C)(O)C(O)C1 (stereo not drawn)
experimentalEndpoint: activity change, negative = cytotoxicity
observedValue: inactive
//
molecule: CC1=C2C(=O)C=C(CO[C@@H]3O[C@H](CO)[C@@H](O)[C@H](O)[C@H]3O)[C@@H]2[C@H]2OC(=O)[C@H](C)[C@@H]2CC1
experimentalEndpoint: activity change, negative = cytotoxicity
observedValue: inactive
//
molecule: C=C(CC/C=C(\C)C(=O)O)C1(O)CC=C(C)CC1 (stereo not drawn)
experimentalEndpoint: activity change, negative = cytotoxicity
observedValue: inactive
//
molecule: C=C[C@H]1[C@H](O[C@@H]2O[C@H](CO)[C@@H](O)[C@H](O)[C@H]2O)OC=C(C(=O)OC)[C@H]1CC=O
experimentalEndpoint: activity change, negative = cytotoxicity
observedValue: inactive
//
molecule: C[C@@H]1O[C@@H](OC2C(O[C@H]3[C@H](O[C@H]4CC[C@@]5(C)C(CC[C@]6(C)C5CC=C5C7CC(C)(C)CC(O)[C@]7(C)CC[C@]56C)C4(C)C)O[C@H](C(=O)O)[C@@H](O)[C@@H]3O)OC(CO)C(O)C2O)[C@H](O)[C@H](O)[C@H]1O (stereo partly drawn)
experimentalEndpoint: activity change, negative = cytotoxicity
observedValue: 9.23% [at 11.6 µM] (inactive)
//
molecule: O=C(NCCN1CCCC1)c1cc(-c2ccc(CN3CCOCC3)cc2)nc2ccc(F)cc12
experimentalEndpoint: activity change, negative = cytotoxicity
observedValue: inactive
//
molecule: O=C(O)c1cccc(C(=O)CCC2OC(n3cnc4c(=O)[nH]cnc43)C(O)C2O)c1 (stereo not drawn)
experimentalEndpoint: activity change, negative = cytotoxicity
observedValue: inactive
//
molecule: C[C@@H]1CC[C@]2(C(=O)O[C@@H]3O[C@H](CO[C@@H]4O[C@H](CO)[C@@H](O)[C@H](O)[C@H]4O)[C@@H](O)[C@H](O)[C@H]3O)CC[C@]3(C)C(=CCC4[C@@]5(C)CC[C@H](O)[C@](C)(C(=O)O)C5CC[C@]43C)[C@@H]2[C@]1(C)O (stereo partly drawn)
experimentalEndpoint: activity change, negative = cytotoxicity
observedValue: -1.83% [at 11.6 µM] (inactive)
//
molecule: O=C(O)C(Cc1ccccc1)NC(=O)C1CCCN1 (stereo not drawn) (H-Pro-Phe-OH; configuration not given here)
experimentalEndpoint: activity change, negative = cytotoxicity
observedValue: inactive
//
molecule: CCC1(O)CC2c3cc(OC)c(OC)cc3CCN2CC1CC(C)C (stereo not drawn)
experimentalEndpoint: activity change, negative = cytotoxicity
observedValue: inactive
//
molecule: COc1cc(O)c(C(=O)O)c(CCc2ccccc2)c1
experimentalEndpoint: activity change, negative = cytotoxicity
observedValue: inactive
//
molecule: CC(=O)O[C@H]1C[C@@]2(C)[C@@H](CC[C@H]3[C@@]4(C)C=CC(=O)[C@@H](C)[C@@H]4[C@H](OC(C)=O)C(=O)[C@@]32C)/C1=C(\CCC=C(C)C)C(=O)O
experimentalEndpoint: activity change, negative = cytotoxicity
observedValue: inactive
//
molecule: C=CC(C)(O)CC/C=C(\C)C(=O)O[C@@H]1[C@@H](O)[C@H](OC(C)(C=C)CC/C=C(\C)C(=O)O[C@@H]2O[C@H](CO)[C@@H](O)[C@H](O)[C@H]2O)O[C@H](CO)[C@H]1OC(=O)/C(C)=C/CCC(C)(O)C=C (stereo partly drawn)
experimentalEndpoint: activity change, negative = cytotoxicity
observedValue: 1.06% [at 11.6 µM] (inactive)
//
molecule: C[C@H]1CC(=O)C2=C(C1)C(O)C(O)[C@@]1(O)[C@H]2C(=O)c2cccc(O)c2[C@@H]1O (stereo partly drawn)
experimentalEndpoint: activity change, negative = cytotoxicity
observedValue: inactive
//
molecule: CNC(C)C(=O)NC(C(=O)N1CCCC1C(=O)Nc1cccc2ncccc12)C(C)C (stereo not drawn)
experimentalEndpoint: activity change, negative = cytotoxicity
observedValue: inactive
//
molecule: COC(=O)[C@]1(Cc2ccc(O)c(CC=C(C)C)c2)OC(=O)C(O)=C1c1ccc(O)cc1
experimentalEndpoint: activity change, negative = cytotoxicity
observedValue: inactive
//
molecule: C[C@@H]1O[C@@H](OC(=O)Cc2ccccc2)[C@H](O)[C@H](O)[C@H]1O
experimentalEndpoint: activity change, negative = cytotoxicity
observedValue: inactive
//
molecule: O=C(O[C@H]1[C@H](Oc2ccc(O)cc2CO)O[C@H](CO)[C@@H](O)[C@@H]1O)c1ccccc1
experimentalEndpoint: activity change, negative = cytotoxicity
observedValue: inactive
